# systemTested: Glucocorticoid Receptor (GR) (Homo sapiens, UniProt P04150)
# Sequence (P04150 541-778 isoform P04150-3): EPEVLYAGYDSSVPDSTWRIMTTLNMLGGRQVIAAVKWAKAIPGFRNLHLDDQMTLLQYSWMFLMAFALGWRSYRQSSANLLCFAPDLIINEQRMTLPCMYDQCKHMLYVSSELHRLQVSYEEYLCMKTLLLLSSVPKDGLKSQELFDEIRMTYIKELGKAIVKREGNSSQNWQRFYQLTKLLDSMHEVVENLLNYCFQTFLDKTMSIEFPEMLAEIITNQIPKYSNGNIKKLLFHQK
# protocol: Functional assay of glucocorticoid receptor antagonism (Gal4-GR-LBD luciferase reporter, COS-7 cells)
# testConditions: antagonism of dexamethasone (10 nM)-induced GR activity
pIC50: −log10 of the molar value.
Below, each entry is listed alongside its reported pIC50.

Consider the reported pIC50 for these compounds:
* O=C1CCC2(C3CC3)OC3(CN12)c1ccccc1C=Cc1ccccc13 (stereo not shown) [FRS-10] | 5.00 to 6.00
* O=C1CCCC2(C(F)(F)F)OC3(CN12)c1ccccc1C=Cc1ccccc13 (stereo not shown) [FRS-11] | 5.00 to 6.00
* CC12CCCC(=O)N1CC1(O2)c2ccccc2C=Cc2ccccc21 (stereo not shown) [FRS-4] | < 5.00
* CC12CCC(=O)N1CC1(O2)c2ccccc2C=Cc2ccccc21 (single isomer, unassigned) [FRS-1 (Chiral Synthesis)] | 5.00 to 6.00

Continue with the next compound.
Need pIC50 of CCCC12CCC(=O)N1CC1(O2)c2ccccc2C=Cc2ccccc21 (stereo not shown) [FRS-9] , thanks.
5.00 to 6.00

* * *

# systemTested: Androgen Receptor (AR) (Homo sapiens)
# Sequence (P10275 whole entry Q868H, form open): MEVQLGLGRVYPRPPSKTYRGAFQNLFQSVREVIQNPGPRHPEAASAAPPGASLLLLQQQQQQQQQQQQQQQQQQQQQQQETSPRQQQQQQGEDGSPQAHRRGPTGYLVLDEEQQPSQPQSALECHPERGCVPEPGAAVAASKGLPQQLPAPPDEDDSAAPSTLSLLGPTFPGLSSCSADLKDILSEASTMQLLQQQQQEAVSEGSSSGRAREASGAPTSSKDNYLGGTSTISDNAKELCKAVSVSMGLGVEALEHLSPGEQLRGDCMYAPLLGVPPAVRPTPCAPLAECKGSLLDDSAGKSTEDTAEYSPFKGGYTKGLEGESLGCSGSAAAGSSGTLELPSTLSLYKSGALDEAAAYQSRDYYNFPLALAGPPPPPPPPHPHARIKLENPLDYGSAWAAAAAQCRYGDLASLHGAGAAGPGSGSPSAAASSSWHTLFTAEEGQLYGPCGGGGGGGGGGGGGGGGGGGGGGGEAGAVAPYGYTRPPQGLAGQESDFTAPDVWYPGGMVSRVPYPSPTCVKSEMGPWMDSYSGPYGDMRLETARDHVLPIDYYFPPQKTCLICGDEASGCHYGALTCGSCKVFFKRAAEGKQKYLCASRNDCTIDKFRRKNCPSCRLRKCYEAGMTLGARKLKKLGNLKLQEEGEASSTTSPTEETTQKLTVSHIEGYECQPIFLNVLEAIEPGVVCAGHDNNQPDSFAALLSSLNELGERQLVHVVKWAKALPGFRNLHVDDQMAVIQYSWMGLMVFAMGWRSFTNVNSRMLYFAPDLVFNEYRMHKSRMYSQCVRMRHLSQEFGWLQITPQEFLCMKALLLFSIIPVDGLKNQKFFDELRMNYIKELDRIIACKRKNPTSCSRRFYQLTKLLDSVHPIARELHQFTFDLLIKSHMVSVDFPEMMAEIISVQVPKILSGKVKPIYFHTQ
# protocol: Functional assay of androgen receptor antagonism (MMTV luciferase reporter in MDA-kb2 cells)
# testConditions: antagonism of dihydrotestosterone (0.3 nM)-induced AR activity
pIC50: −log10 of the molar value.
readoutName: pIC50

Could you share what pIC50 was measured for O=C1CCC2(c3cccs3)OC3(CN12)c1ccccc1C=Cc1ccccc13 (centres unmarked) [FRS-8] , tested on Androgen Receptor (AR) (Homo sapiens)?
6.00 to 7.00

Next compound: O=C1CCC2(c3ccc(F)cc3)OC3(CN12)c1ccccc1C=Cc1ccccc13 (centres unmarked) [FRS-3]
5.00 to 6.00

Another compound to check: CC12CCCC(=O)N1CC1(O2)c2ccccc2C=Cc2ccccc21 (centres unmarked) [FRS-4]
< 5.00

Next compound: CC1(C)OC2(CN1C(=O)Nc1ccc(F)cc1F)c1ccccc1C=Cc1ccccc12 [SOXS-1]
< 5.00

How about COc1ccc(C23CCC(=O)N2CC2(O3)c3ccccc3C=Cc3ccccc32)cc1 (centres unmarked) [FRS-5] ?
< 5.00

Please give the result for CCCC12CCC(=O)N1CC1(O2)c2ccccc2C=Cc2ccccc21 (centres unmarked) [FRS-9] too.
6.00 to 7.00

Queued: CC12CCC(=O)N1CC1(O2)c2ccccc2CCc2ccccc21 (single isomer, unassigned) [FRS-13 (Chiral Synthesis)]
6.00 to 7.00

Request: CC12CCC(=O)N1CC1(O2)c2ccccc2CCc2ccccc21 (centres unmarked) [FRS-13]
6.00 to 7.00

Next compound up: CC12CCCCC(=O)N1CC1(O2)c2ccccc2C=Cc2ccccc21 (centres unmarked) [FRS-6]
5.00 to 6.00

Item: CC12CCC(=O)N1CC1(O2)c2ccccc2C=Cc2ccccc21 (single isomer, unassigned) [FRS-1 (Chiral Synthesis)]
6.00 to 7.00

What do you have for CC1(C)OC2(CN1S(C)(=O)=O)c1ccccc1C=Cc1ccccc12 [SOXS-4] ?
5.00 to 6.00

What about CC(=O)N1CC2(OC1(C)C)c1ccccc1C=Cc1ccccc12 [SOXS-3] ?
5.00 to 6.00

Now consider O=C1CCC2(c3ccccc3)OC3(CN12)c1ccccc1C=Cc1ccccc13 (centres unmarked) [FRS-2] .
6.00 to 7.00

Can you handle CC(=O)N1CC2(OC13CCCCC3)c1ccccc1C=Cc1ccccc12 [SOXS-6] next?
5.00 to 6.00
